Molecular target: MetAP-2 (Homo sapiens, UniProt P50579)
Sequence (P50579 2-478): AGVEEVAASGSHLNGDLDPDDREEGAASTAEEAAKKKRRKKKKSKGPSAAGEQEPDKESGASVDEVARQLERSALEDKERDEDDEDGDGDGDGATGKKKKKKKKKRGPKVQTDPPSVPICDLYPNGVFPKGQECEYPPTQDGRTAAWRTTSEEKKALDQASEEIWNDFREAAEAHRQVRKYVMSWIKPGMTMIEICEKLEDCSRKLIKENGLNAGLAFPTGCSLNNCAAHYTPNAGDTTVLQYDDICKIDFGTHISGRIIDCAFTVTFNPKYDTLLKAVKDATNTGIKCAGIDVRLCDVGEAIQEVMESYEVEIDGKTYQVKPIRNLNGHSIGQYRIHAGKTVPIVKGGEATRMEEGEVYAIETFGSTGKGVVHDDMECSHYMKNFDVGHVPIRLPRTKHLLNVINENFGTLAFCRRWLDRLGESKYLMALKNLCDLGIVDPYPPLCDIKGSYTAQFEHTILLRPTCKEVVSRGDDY
Experiment: Biochemical activity testing of MetAP-2 (enzyme-coupled assay, Met-Ala-Ser substrate)
Below: a set of entries, each annotated with reported pIC50.
# pIC50 is unitless: minus log10 of the molar concentration; print number only

Cc1ncsc1-c1ccc(CNC(=O)[C@@H]2C[C@@H](O)CN2C(=O)[C@@H](NC(=O)COCCOCCNC(=O)c2cc3cc(N4CCC(O)(C(=O)NCc5cc(F)cc(F)c5)C4=O)ccc3[nH]2)C(C)(C)C)cc1 (some centres unmarked) [Compound A6]	6.43
O=C1CCC(N2C(=O)c3ccc(NCCOCCOCCOCCOCCNC(=O)c4cc5cc(N6CCC(O)(C(=O)NCc7cc(F)cc(F)c7)C6=O)ccc5[nH]4)cc3C2=O)C(=O)N1 (centres unmarked) [Compound A2]	6.60
O=C1CCC(N2C(=O)c3cccc(NCCOCCOCCNC(=O)c4cc5cc(N6CCC(O)(C(=O)NCc7cc(F)cc(F)c7)C6=O)ccc5[nH]4)c3C2=O)C(=O)N1 (centres unmarked) [Compound A5]	6.48
O=C1CCC(N2C(=O)c3ccc(NCCCCCNC(=O)c4cc5cc(N6CCC(O)(C(=O)NCc7cc(F)cc(F)c7)C6=O)ccc5[nH]4)cc3C2=O)C(=O)N1 (centres unmarked) [Compound A4]	6.32

# input for lookup
Ask: Quick check: pIC50 on MetAP-2 (Homo sapiens, UniProt P50579), item O=C1CCC(N2C(=O)c3cccc(NCCOCCOCCOCCOCCOCCNC(=O)c4cc5cc(N6CCC(O)(C(=O)NCc7cc(F)cc(F)c7)C6=O)ccc5[nH]4)c3C2=O)C(=O)N1 (centres unmarked) [Compound A1] ?
Result: 6.72
